Biological target: recombinant human DAO (diamine oxidase) (Homo sapiens, UniProt P19801)
Construct: purchased R&D systems
Sequence (P19801 20-751): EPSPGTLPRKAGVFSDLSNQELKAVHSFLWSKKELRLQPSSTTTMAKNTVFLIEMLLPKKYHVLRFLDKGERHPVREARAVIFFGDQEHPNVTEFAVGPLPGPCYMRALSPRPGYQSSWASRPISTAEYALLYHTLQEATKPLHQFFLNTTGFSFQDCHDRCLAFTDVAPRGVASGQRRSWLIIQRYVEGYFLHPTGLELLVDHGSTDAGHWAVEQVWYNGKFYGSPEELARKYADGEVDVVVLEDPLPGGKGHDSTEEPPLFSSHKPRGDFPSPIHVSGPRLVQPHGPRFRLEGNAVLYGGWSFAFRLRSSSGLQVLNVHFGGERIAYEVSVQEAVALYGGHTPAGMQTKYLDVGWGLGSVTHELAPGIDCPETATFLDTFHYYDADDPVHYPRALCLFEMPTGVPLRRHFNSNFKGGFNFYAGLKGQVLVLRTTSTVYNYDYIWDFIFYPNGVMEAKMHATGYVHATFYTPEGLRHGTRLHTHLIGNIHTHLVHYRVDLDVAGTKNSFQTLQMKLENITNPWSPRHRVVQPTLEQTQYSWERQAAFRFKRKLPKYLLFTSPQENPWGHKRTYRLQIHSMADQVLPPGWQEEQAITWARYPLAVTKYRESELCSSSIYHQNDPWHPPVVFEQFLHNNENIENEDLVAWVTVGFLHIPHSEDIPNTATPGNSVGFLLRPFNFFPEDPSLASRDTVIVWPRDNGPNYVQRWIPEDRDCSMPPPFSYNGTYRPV
Assay: Activity evaluation on recombinant human DAO (Amplex Red/HRP-coupled assay, 1 mM putrescine substrate)
Format: biochemical
Conditions: 1 mM putrescine, read-out: Inhibitory Activity (IC50, nM) DAO
Description: The compounds according to the present technology were evaluated in terms of activity on recombinant human VAP-1 (R&D systems) by measuring the level of hydrogen peroxide in horseradish peroxidase (HRP)-coupled reaction using Amplex Red Hydrogen Peroxide Assay Kit (Molecular Probes, Invitrogen, USA). […] The inhibitory effect of the compounds was measured as a decrease (%) in the signal rate as compared to the control group without any inhibitor (only diluted DMSO). […]
Structures can show the parent of a compound that is named as a salt.
REPORTED METRIC: IC50 (nM)

> print(dat)
                                   compound  reported.result
1  CN1CCOc2cc(-c3ccc(Cn4cnn(CC(CN)=C(F)F)c4=O)s3)ccc21 [Example 140, Trifluoroacetate]             6800
2  NCC(Cn1ncn(-c2ccc(-c3ccc(N4CCNCC4)cc3)nc2)c1=O)=C(F)F [Example 39, Ditrifluoroacetate]              310
3  NCC(Cn1ncn(-c2cnc(-c3ccc(C(F)(F)F)nc3)cn2)c1=O)=C(F)F [Example 91, Trifluoroacetate]                1
4  CN1C(=O)CCc2cc(-c3ccc(-n4cnn(CC(CN)=C(F)F)c4=O)cn3)ccc21 [Example 44, Trifluoroacetate]               14
5  NCC(Cn1ncn(Cc2ccc(-c3ccc4nonc4c3)s2)c1=O)=C(F)F [Example 129, Trifluoroacetate]            21000

[A] NCC(Cn1ncn(-c2ncc(-c3ccc4c(c3)OCO4)cc2F)c1=O)=C(F)F [Example 85, Trifluoroacetate]
[B] Cc1cc(-c2csc(Cn3cnn(CC(CN)=C(F)F)c3=O)c2)cc2c1NC(=O)CC2 [Example 151, Trifluoroacetate]
Q: Given the listed items, does A or B have the lesser reported IC50? Bench note: the answer is the label of the chosen record.
Ans: A
(A: 180 nM, B: 6600 nM)

[P] Cc1cc(-c2cc(-n3cnn(CC(CN)=C(F)F)c3=O)ccn2)cc2c1NC(=O)CC2 [Example 65, Trifluoroacetate]
[Q] CCn1cc(-c2ccc(-n3cnn(CC(CN)=C(F)F)c3=O)c(F)c2)cn1 [Example 37, Trifluoroacetate]
[R] CS(=O)(=O)c1ccc(-c2cccc(-n3cnn(CC(CN)=C(F)F)c3=O)n2)cc1 [Example 46, Trifluoroacetate]
[S] NCC(Cn1ncn(-c2ccc(-c3ccc(C(F)(F)F)nc3)c(F)c2)c1=O)=C(F)F [Example 26, Trifluoroacetate]
Q: Order the 4 compounds from highest to lowest IC50. Thanks in advance for listing the labels in the requested order.
Ans: Q, P, R, S

[I] CN(C)c1ccc(-c2ccc(-n3cnn(CC(CN)=C(F)F)c3=O)cc2F)cn1 [Example 27, Trifluoroacetate]
[II] Cc1cc(-c2cnc(-n3cnn(CC(CN)=C(F)F)c3=O)c(F)c2)cc2c1NC(=O)CC2 [Example 86, Trifluoroacetate]
Q: Given I and given II , which shows the smaller recorded IC50? Pick one; state its label.
Ans: II

[P] Cc1cc(-c2ccc3c(c2)OCO3)cnc1-n1cnn(CC(CN)=C(F)F)c1=O [Example 72, Trifluoroacetate]
[Q] NCC(Cn1ncn(-c2cccc(-c3ccc4c(c3)OCO4)n2)c1=O)=C(F)F [Example 50, Trifluoroacetate]
[R] NCC(Cn1ncn(CCc2ccc(-c3ccc4c(c3)OCO4)s2)c1=O)=C(F)F [Example 177, Trifluoroacetate]
[S] CN1C(=O)CCc2cc(-c3cnc(-n4cnn(CC(CN)=C(F)F)c4=O)c(F)c3)ccc21 [Example 87, Trifluoroacetate]
Q: List these items ordered by IC50, big to small. Give the labels in the order requested.
Ans: P, R, Q, S
(P: 57000 nM, R: 2500 nM, Q: 1200 nM, S: 22 nM)

---

Biological target: recombinant human MAO-B (monoamine oxidase-B) (Homo sapiens)
Construct: purchased Sigma-Aldrich
Sequence (P27338 whole entry): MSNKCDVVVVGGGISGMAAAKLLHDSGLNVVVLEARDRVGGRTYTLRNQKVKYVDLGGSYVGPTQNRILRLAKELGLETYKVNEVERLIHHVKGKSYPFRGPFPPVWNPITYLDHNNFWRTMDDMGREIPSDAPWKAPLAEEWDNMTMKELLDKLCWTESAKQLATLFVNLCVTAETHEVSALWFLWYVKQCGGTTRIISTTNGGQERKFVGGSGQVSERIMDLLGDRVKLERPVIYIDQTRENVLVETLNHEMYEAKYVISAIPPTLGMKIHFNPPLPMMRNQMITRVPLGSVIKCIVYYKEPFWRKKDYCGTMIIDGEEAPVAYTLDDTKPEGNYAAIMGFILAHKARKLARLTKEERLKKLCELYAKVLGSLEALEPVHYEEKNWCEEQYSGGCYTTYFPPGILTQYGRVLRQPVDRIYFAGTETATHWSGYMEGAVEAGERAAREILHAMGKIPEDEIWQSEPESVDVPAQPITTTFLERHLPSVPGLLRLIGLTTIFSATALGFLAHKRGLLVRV
Assay: Activity evaluation on recombinant human MAO-B (Amplex Red/HRP-coupled assay, 1 mM benzylamine substrate)
Assay type: biochemical
Conditions: 1 mM benzylamine, read-out: Inhibitory Activity (IC50, nM) MAO-B
Counter-ions that a name gives are not always drawn.
REPORTED METRIC: IC50 (nM)

Example entries begin here.
> print(dat)
                                   molecule                       experimental.system  reported.result
1  COc1cc(-c2ccc(Cn3cnn(CC(CN)=C(F)F)c3=O)s2)cc(OC)c1OC [Example 105, Trifluoroacetate]  recombinant human MAO-B (monoamine oxidase-B) (Homo sapiens)             6500
2  Cc1cc(-n2cnn(CC(CN)=C(F)F)c2=O)cnc1-c1ccc(C(F)(F)F)nc1 [Example 77, Trifluoroacetate]  recombinant human MAO-B (monoamine oxidase-B) (Homo sapiens)             1600

[a] NCC(Cn1ncn(Cc2ccc(C#Cc3ccc(N4CCOCC4)nc3)s2)c1=O)=C(F)F [Example 163, Trifluoroacetate]
[b] Cc1cc(Br)sc1Cn1cnn(CC(CN)=C(F)F)c1=O [Example 99, Trifluoroacetate]
[c] Cc1cc(-n2cnn(CC(CN)=C(F)F)c2=O)cnc1-c1ccc(N(C)C)nc1 [Example 78, Trifluoroacetate]
Q: Exam item: list the entries in increasing order of IC50. Reply with the labels, ordered as the question asks.
Ans: c, b, a

---

Biological target: recombinant human MAO-A (monoamine oxidase-A) (Homo sapiens)
Construct: purchased Sigma-Aldrich
Sequence (P21397 1-527): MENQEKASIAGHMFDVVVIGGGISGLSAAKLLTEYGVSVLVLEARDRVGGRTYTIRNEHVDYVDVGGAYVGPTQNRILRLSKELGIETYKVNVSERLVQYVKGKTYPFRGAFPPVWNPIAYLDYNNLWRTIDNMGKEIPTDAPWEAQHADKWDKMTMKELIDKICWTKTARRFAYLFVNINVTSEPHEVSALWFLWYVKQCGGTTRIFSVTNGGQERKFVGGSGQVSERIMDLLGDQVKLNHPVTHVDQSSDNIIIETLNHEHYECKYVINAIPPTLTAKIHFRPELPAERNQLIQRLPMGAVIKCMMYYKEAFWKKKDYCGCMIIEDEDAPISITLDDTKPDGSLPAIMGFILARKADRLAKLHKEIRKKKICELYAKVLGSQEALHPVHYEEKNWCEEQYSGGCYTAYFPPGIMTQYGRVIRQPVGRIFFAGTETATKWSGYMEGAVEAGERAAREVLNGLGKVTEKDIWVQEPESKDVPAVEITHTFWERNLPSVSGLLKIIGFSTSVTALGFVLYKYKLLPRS
Test: Activity evaluation on recombinant human MAO-A (Amplex Red/HRP-coupled assay, 0.5 mM tyramine substrate)
Assay type: biochemical
Conditions: 0.5 mM tyramine substrate, read-out: Inhibitory Activity (IC50, nM) MAO-A
Structures can show the parent of a compound that is named as a salt.
REPORTED METRIC: IC50

These recorded examples may help you get a feel for the data.
> print(dat)
                                   compound  reported.result
1  Cc1cc(-c2cccc(-c3cc[nH]n3)c2)cnc1-n1cnn(CC(CN)=C(F)F)c1=O [Example 232, Trifluoroacetate]      > 100000 nM
2  CCn1cc(-c2ccc3sc(Cn4cnn(CC(CN)=C(F)F)c4=O)cc3c2)cn1 [Example 212, Trifluoroacetate]         79100 nM
3  Cc1cc(C#Cc2cnc3c(c2)NCCO3)cnc1-n1cnn(CC(CN)=C(F)F)c1=O [Example 244, ditrifluoroacetate]      > 100000 nM
4  NCC(Cn1ncn(Cc2cc3cc(-c4ccc(N5CCNCC5)cc4)ccc3s2)c1=O)=C(F)F [Example 206, Ditrifluoroacetate]      > 100000 nM
5  CN1C(=O)CCc2cc(-c3cc(F)c(Cn4cnn(CC(CN)=C(F)F)c4=O)s3)ccc21 [Example 301, trifluoroacetate]      > 100000 nM

Q: Using the record for CCn1cc(-c2ccccc2Cn2cnn(CC(CN)=C(F)F)c2=O)cn1 [Example 278, trifluoroacetate] , report its IC50.
Ans: > 100000 nM

Q: Any idea what its IC50 is? The compound is NCC(Cn1ncn(Cc2cc3ccc(-c4ccc(C(F)(F)F)nc4)cc3s2)c1=O)=C(F)F [Example 199, Trifluoroacetate]
Ans: > 100000 nM

Q: Form field: reported IC50 of NCC(Cn1ncn(Cc2ccc(-c3cn[nH]c3)s2)c1=O)=C(F)F [Example 292, Trifluoroacetate]
Ans: 86200 nM

Q: What does the data say about its IC50? Entry: Cc1cc(C#Cc2ccc3c(c2)CCC(=O)N3)cnc1-n1cnn(CC(CN)=C(F)F)c1=O [Example 249, Trifluoroacetate]
Ans: > 100000 nM

Q: Data request, read-out IC50, for NCC(Cn1ncn(Cc2cc(-c3cccc(-c4nc[nH]n4)c3)cs2)c1=O)=C(F)F [Example 196, Trifluoroacetate]
Ans: > 100000 nM

Q: Can you look up the measured IC50 of CC(C)n1cc(-c2csc(Cn3cnn(CC(CN)=C(F)F)c3=O)c2)cn1 [Example 195, Trifluoroacetate] for me?
Ans: > 100000 nM

Q: Item NCC(Cn1ncn(Cc2ccc(-c3cnn(S(=O)(=O)C4CC4)c3)s2)c1=O)=C(F)F [Example 294, Trifluoroacetate] has what recorded IC50?
Ans: > 100000 nM

Q: Item under review: Cc1cc(-c2ccc3c(c2)NC(=O)CO3)cnc1-n1cnn(CC(CN)=C(F)F)c1=O [Example 221, Trifluoroacetate] . Reported IC50?
Ans: 20000 nM

Q: Which IC50 is listed for CN(C)c1ccc(-c2cccc(Cn3cnn(CC(CN)=C(F)F)c3=O)c2)cn1 [Example 273, Trifluoroacetate] ?
Ans: > 100000 nM
